System: E. coli ATCC 25922
Assay: Phototoxicity test c.1) (LED array 430-435 nm, CFU count by Miles and Misra)
Format: cell-based, Escherichia coli
Conditions: Escherichia coli, ATCC25922, light or radiation study, 25 min; 10 μM; incubation period 25 min (lower value); light dose 33.8 J/cm^2, approx. 435 nm, 60 min at 9.4 mW/cm^2; vs reference control; read-out: Effectiveness against E. Coli: Reduction in CFU in log10 at concentration of 10 μM
Where a name gives a salt, the structure may show the parent alone.

{"Compound": "COc1ccc(/C=C/C(=O)CC(=O)/C=C/c2ccc(OCCN)c(OC)c2)cc1OC [Curcumin 11b hydrochloride]", "log reduction at 10 µM": "> 1"}
{"Compound": "COc1ccc(/C=C/C(=O)CC(=O)/C=C/c2ccc(OCCN)c(OCCN)c2)cc1OCCN [Curcumin 13b hydrochloride]", "log reduction at 10 µM": "> 7"}
{"Compound": "Cc1cc(/C=C/C(=O)CC(=O)/C=C/c2ccc(OCCN)c(C)c2)ccc1OCCN [Curcumin 01e hydrochloride]", "log reduction at 10 µM": "> 5"}
{"Compound": "NCCCOc1ccc(/C=C/C(=O)CC(=O)/C=C/c2ccc(OCCCN)c(OCc3ccccc3)c2)cc1OCc1ccccc1 [Curcumin 04 hydrochloride]", "log reduction at 10 µM": "> 3"}
{"Compound": "COc1cc(/C=C/C(=O)CC(=O)/C=C/c2ccc(OCCOCCN)c(OC)c2)ccc1OCCOCCN [Curcumin 02 hydrochloride]", "log reduction at 10 µM": "> 4"}
